# system-tested: CYP26A1 (Homo sapiens)
# Sequence (O43174 1-497): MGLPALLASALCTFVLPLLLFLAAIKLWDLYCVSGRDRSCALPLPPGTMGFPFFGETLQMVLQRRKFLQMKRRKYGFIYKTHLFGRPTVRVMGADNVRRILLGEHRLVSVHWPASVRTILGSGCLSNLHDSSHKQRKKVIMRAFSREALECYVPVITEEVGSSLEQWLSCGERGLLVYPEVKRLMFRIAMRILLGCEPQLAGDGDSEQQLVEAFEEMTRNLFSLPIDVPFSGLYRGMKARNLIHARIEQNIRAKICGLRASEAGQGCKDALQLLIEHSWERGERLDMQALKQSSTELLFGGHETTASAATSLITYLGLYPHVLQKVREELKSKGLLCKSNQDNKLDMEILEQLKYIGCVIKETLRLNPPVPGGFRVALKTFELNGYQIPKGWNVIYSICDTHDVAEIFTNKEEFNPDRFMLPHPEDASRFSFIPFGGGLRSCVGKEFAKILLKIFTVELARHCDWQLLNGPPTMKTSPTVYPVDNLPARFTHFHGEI
observable: Kd (nM)
Kindly answer with a numeric value in nM, unit omitted.

// sample CC1=C(/C=C/C(C)=C/C=C/C(C)=C/C(=O)O)C(C)(C)CCC1 [RA, all-trans-retinoic acid] , its Kd was 529
